Target: T1, Vibrio maritimus FtsA residues 1-396 (VmFtsA^1-396) (Vibrio maritimus)
T1 chain: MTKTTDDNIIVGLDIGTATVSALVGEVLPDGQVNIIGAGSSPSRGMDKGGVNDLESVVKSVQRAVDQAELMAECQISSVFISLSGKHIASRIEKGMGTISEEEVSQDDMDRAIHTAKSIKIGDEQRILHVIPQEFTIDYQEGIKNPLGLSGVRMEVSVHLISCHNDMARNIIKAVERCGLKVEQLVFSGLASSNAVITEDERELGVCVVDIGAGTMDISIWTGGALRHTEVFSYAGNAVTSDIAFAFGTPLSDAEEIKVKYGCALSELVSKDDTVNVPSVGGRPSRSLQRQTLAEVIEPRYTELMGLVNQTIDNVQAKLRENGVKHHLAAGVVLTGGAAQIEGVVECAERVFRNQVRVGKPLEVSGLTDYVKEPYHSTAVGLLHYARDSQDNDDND
Assay: FP; two-step model, second transition (polymerisation)
value_type: Kd

1) MANRDYVRRGKGTSRRPAKKKTSGKKPWRC (Atto 495 (maleimide) on the added C-terminal cysteine) [VmFtsN^1-29-C-Atto 495] = 10 µM
